- Test system: MS2 coat protein
- Assay Protocol: apparent KD of MS2 coat protein; designed switch direction (-1 OFF switch, 1 ON switch): 1; higher = weaker reporter binding
- Experimental Setup: Eterna round: R95; input ligand: FMN 200 uM
List of apparent KD of MS2 coat protein values.
Could you give me the number in nM? Just the number is fine.

GGUCCAGCCUGAGCUGGACAAAAGCAUGUACAUGAGGAUCACCCAUGUUCAUGUACAAGCUUUUUGCUCGUCUUAUU [salish99_208a_r3_049] (puzzle: Sensor for hsa-mir-208a) ... 560
UUAAGCCACGGGCAGGAUAUGUAUUAAAAUACAUGAGGAUCACCCAUGUGCAGGUGUAACACCUGGCAGAAGGGCCAAUCGCGGC [Soondi - 4] (puzzle: Same State 2) ... 29.2

The record that follows has no apparent KD of MS2 coat protein shown yet.
Lookup: Which apparent KD of MS2 coat protein value is on record for AGUUGUGGGAAACUAUAGCAGACGCUCGUACAUGAGGAUCACCCAUGUCUUGUAGGAGCUGUUUGCUCGUUUUAUGG [ak 1 mod of one Eli's designs.] (puzzle: Sensor for hsa-mir-208a) ?
Found: 62.8

====

# apparent KD of MS2 coat protein per entry
- System: MS2 coat protein
- Assay Protocol: apparent KD of MS2 coat protein, switch OFF state (with FMN for OFF switches, without FMN for ON switches); designed switch direction (-1 OFF switch, 1 ON switch): -1; higher = weaker reporter binding
- Experimental Setup: FMN input: 0 or 200 uM; Eterna round: R93 (includes R88 designs)
Answer with the value and then the unit.

Look over these answered cases.
AAAAUGUGAGGAUAUGUACGAAAAAAUAAAAAAAUAAAAGUACAGAAGGCACAUGAGGAUCACCCAUGUGGGAA [EX4 399: Minimal 12] ... 94 nM
AUAAACGGAGGAUAUACAUGAGGAUCACCCAUGUAAAUAAAUAGGAGAGCCACAAUAAGUAGAAGGUCGAAUAA [JR_Exc003_Sub010] ... 32.4 nM

Lookup: # lookup: apparent KD of MS2 coat protein of AAGUUGUCAGGAUAUGCUUGUCGUCACAAAAGUGAUGACGAGCAGAAGGGACAUGAGGAUCACCCAUGUAAAGA [JL eternac mod 2]
Found: 117 nM

====

- Tested on: MS2 coat protein
- Assay Protocol: apparent KD of MS2 coat protein; higher = weaker reporter binding
- Experimental Setup: Eterna round: R107; input ligand: arginine 13.2 mM
Listing of recorded apparent KD of MS2 coat protein by entry.
Answer with the number, then the unit.

For orientation, consider the following solved cases.
ACAUGAGGAUCACCCAUGUAGUGGCACGAUACCAGCUGAUCCCGUGGCCCUUGGCAGCGUCCGGUGUGGUCUGCCGGGAUGGAGC [WBWMULLIN] ... 0.025 µM
AUGUCGUUGAAUACAGCGGCAUGGAGUGAUACCAGAAUGAUCAAAUUCCCUUGGCAGCAUGACAUGAGGAUCACCCAUGUUCGAU [SSTheo A #15] ... 0.0343 µM
UAAAUAAUCUGGGUGUAGGUAAUAACAGAUACCAGCCAGAUAACUGGCCCUUGGCAGCUGAAAACAUGAGGAUCACCCAUGUAAA [Mat - Same State Theophlline A - Mod of Eli - D19] ... 0.0583 µM
ACAUGAGGAUCACCCAUGUAAUUUACAGAAGGAGCGUGAUGGAUCACAGGUAGGUCGCUGUACUGCGAAAGCACUCUCAUGAAUA [JR_Nu_SSArginiA_Sub025] ... 0.0186 µM
GCCAUCGGCGGAAGCCGAUGGGAUACAGAAGGAGCGUAGGAAACUACAGGUAGGUCGCUGGACAUGAGGAUCACCCAUGUGAUAG [SSAA #11] ... 0.0196 µM

Attention now turns to another entry.
Lookup: Requested read-out apparent KD of MS2 coat protein, target or system MS2 coat protein, entry UGGUACAUGAGGAUCACCCAUGUUCCAGAUACCAGUGUCCCGCUGCACCCUUGGCAGCUGGUGGCACAUGAGGAUCACCCAUGUG [Exclusion Theophylline A GF12]
Found: 0.0115 µM

====

- Tested on: MS2 coat protein
- Assay Protocol: apparent KD of MS2 coat protein, switch ON state; designed switch direction (-1 OFF switch, 1 ON switch): -1; higher = weaker reporter binding
- Experimental Setup: FMN input: 0 or 200 uM; Eterna round: R93 (includes R88 designs)
Measured Attribute: apparent KD of MS2 coat protein
Form entry: enter the amount, then its unit.

Example entries begin here.
AAGAAGGCAGGAUAUACUAAAGAAAUGAAAAGAAAUAAAGAACAUGAGGAUCACCCAUGUAGAAGGGCCAAGAA [Khakherewre] ... 35.2 nM
AACAGGUCAGGAUAUGUGGAAAAAAUAAAAAAAAAUAAAACACAGAAGGGACAUGAGGAUCACCCAUGUAAACA [Mat - Exclusion 4 - Mayanna - D143] ... 49.3 nM
AUCAUGUAAGGAUAUUCAAGAAAAGAAAAGAAAGAAAAGAAGAAGAAGGUACAUGAGGAUCACCCAUGUAAGAA [EteRNA is fun!] ... 42.5 nM
AAGGGACAUGAGGAUCACCCAUGUUAGGAUAUGCUAUGGAAAAUAAAAAUAAAACAUAGCAGAAGGAACAAAAA [Denovo 8] ... 39.2 nM
AAGAACUUAGGAUAUACAAGGAAGAAAGAAAAGAAAAGAAAACAUGAGGAUCACCCAUGUAGAAGGAAGUAGAA [EteRNA is fun!] ... 40.9 nM
AGGAAACAUGAGGAUCACCCAUGUGAGGAUAUACAAAAGAAAAGAAAAGAAAGAAGAAGUAGAAGGUACAAGAA [Djedkare Isesi] ... 21.7 nM
GCUGUCCUAGGAUAUACAUGAGGAUCACCCAUGUGAGAGAAAAAAGUGAGAAAGAAAAGUAGAAGGAGGGUAGG [salish99-ex3-104] ... 30.4 nM
AAAAAGUUAGGAUAUACAUGAGGAUCACCCAUGUGCACAUAUGGAGAAUAUGGUGGUAGUAGAAGGGACAAAAA [EX2 Malc#17] ... 33.9 nM

Lookup: Could you share which apparent KD of MS2 coat protein value was measured for AAGAACGUAGGAUAUACAUGAGGAUCACCCAUGUAAAAGAAAGAGGGAAAAGAGAAAAGUAGAAGGACGAAGAA [Cleopatra II] ?
Found: 26.1 nM

Lookup: One more sequence: GUGUACAGAGGAUAUACAUAAGCAUGGAAACAUGCAACUUCACAUGAGGAUCACCCAUGUAGAAGGCUGUACAC [Ex2: 729]
Found: 12.1 nM

Lookup: Quick one: AAGAAGUGAGGAUAUCGAAGACUGUCGAAAAGACAGUCGAACGAGAAGGCACAUGAGGAUCACCCAUGUGGGAG [Mat - Exaclusion 4 - Eli mod - D71]
Found: 80.5 nM

Lookup: Okay, and AGUUGGCGAGGAUAUACAUGAGGAUCACCCAUGUGAGAGAAAUAAGUGAGAAAGAAAAGUAGAAGGCGCUAACA [JL Lego Mod 18] ?
Found: 53.5 nM

Lookup: What do you have for GAAAAGCGAGGAUAUACAGAAAAAAAAACAAAAAAAGAAAAACAUGAGGAUCACCCAUGUAGAAGGCGCAAAAA [V1] ?
Found: 25.9 nM

Lookup: Same thing, different sequence: AGAAAACAUGAGGAUCACCCAUGUCAGGAUAUCGAUGUCCAAAAAAAAGUGCGGGACUCGAGAAGGGACUUGGG [Mod of Erbelaed v.2 (favor state 2,lowered kcal by 2.7)]
Found: 27.2 nM

Lookup: Do the same for AGGGAGUGAGGAUAUACGAAAUAAAAAGAAGGAAAAAAAGAGUAGAAGGCACAUGAGGAUCACCCAUGUGAGAA [milkweed 12] please
Found: 20.7 nM

Lookup: Request: CGUUGGCGAGGAUAUACAUGAGGAUCACCCAUGUGAGAGAAAAAAGUGAGAAAGAAAAGUAGAAGGCGCUGACU [salish99-ex3-11]
Found: 43.6 nM

Lookup: // next record AAGAACUGAGGAUAUACAUGAGGAUCACCCAUGUAAAAGAAAGAGGGAAAAGAGAAAAGUAGAAGGCAGAAGAA [Berenice II]
Found: 24.9 nM

====

- Tested on: MS2 coat protein
- Assay Protocol: apparent KD of MS2 coat protein, switch ON state; designed switch direction (-1 OFF switch, 1 ON switch): 1; higher = weaker reporter binding
- Experimental Setup: FMN input: 0 or 200 uM; Eterna round: R93 (includes R88 designs)
Measured Attribute: apparent KD of MS2 coat protein (nM)
The figure you give is taken to be in nM; do not add the unit.

Some solved cases for reference:
GAGAUACAUGAGGAUCACCCAUGUUGAAACAUGGGAGGAUAUACAAGGUCGAAAGAUAAGGUAGAAGGCCUAAAAG [LROPPY Same State 1 - v04_deltaG=3.] ... 37.6
AGAAAUAAAAGAGAGGAUAUCCAAAAGAAAACAUGAGGAUCACCCAUGUGAAACAAAACAAAAUGGGAGAAGGCUCAAAAUAAGA [Topaz 16] ... 31
AAAAAACAUGAGGAUCACCCAUGUGCAAAAUUCGCAGGAUAUUCCUCAAUUAAAUGAGAGGAAGAAGGGUGACAAA [Nob's Hobby 29 - Jieux - Same State 1] ... 112
AACAAUCUAUCUGAGGAUAUGUGUCGAAAGACAUGAGGAUCACCCAUGUGAAAACAUGAAAAAACACAGAAGGCAGAUAGAUUGA [SS2: 1147] ... 33.6
GGGAGUAACAGAGAGGAUAUCCAAAGGAAAACAUGAGGAUCACCCAUGUAAAAGGAAGGAAAUUGGGAGAAGGCUCAAAAUAGAA [salish99-ss2-021] ... 13.9
AGGAAACAUGAGGAUCACCCAUGUAAAAAUAUCACAGGAUAUGGAAACACGAAAGUGAAACCAGAAGGGUGAAAAG [77%, Mat - Mod of Eli, 13] ... 13.2
AAUGAACAUGAGGAUCACCCAUGUUCUAAUAGUUGAGGAUAUAUGGGUGAAAAUAGCACGGUAGAAGGCGAGUGUA [SameState1 Malc#18] ... 249
AAAAAAGAUCGCGAGGAUAUCCGAGUGGUAACAUGAGGAUCACCCAUGUGAAGAAAGGAACAUGAGGAGAAGGCGCGAUCAAAAA [viburnum 5] ... 10.9
GUGGUGUAGGUACAGGAUAUGUUGCUCGUAACAUGAGGAUCACCCAUGUACCUAUGAGAUUAAAUGCAGAAGGGUGCACACCACG [Alage] ... 37.3
GGGAGACAUGAGGAUCACCCAUGUGAGAAGAGGCGAGGAUAUCGAAAAAAAAAAAAAAAACGAGAAGGCGCGAGAC [salish99-SS1-006] ... 33.6

Lookup: Which apparent KD of MS2 coat protein is reported for this sequence? AAACCACAUGAGGAUCACCCAUGUGAAAUACAUACAGGAUAUGCGAAAAGAAACAAAGAAGCAGAAGGGUGAAAAA [75%, Ex sub1, 18]
Found: 15.9

Lookup: Now consider GGCAGGAAGAGAGAGGAUAUCCAAAGGAAAACAUGAGGAUCACCCAUGUAAAAGGUAGGAAAUUGGGAGAAGGCUCAAGAGAGAG [salish99-ss2-099] and answer again.
Found: 30.9
